# Read-out: C-C motif chemokine 2 (Homo sapiens) (UniProt P13500)
# ASSAY TEXT: BSK_KF3CT_MCP1: BioMAP Diversity Plus: KF3CT Assay for Monocyte Chemoattractant Protein 1 (MCP1/CCL2) Biomarker Activity (AID 2283073)
# CONDITION NOTES: primary human keratinocytes with fibroblasts; actives raise or lower the signal
Active and inactive are the calls of the source. Rule for the calls: active = hit-call score of the fitted dose curve at least 0.9, where 1 is the maximum; inactive = score below 0.9.
Mark one answer only. Choices: yes (1) (active), no (0) (inactive)

O=C1CCCN1CCO = no (0)
c1ccc2c(c1)ccc1ncccc12 = no (0)

Read the next record carefully.
For this compound, state the assay outcome: C=CCOCC(O)CCl (stereo unspecified) no (0)

---

# ASSAYED SYSTEM: human Peripheral-type Benzodiazepine Receptor (PBR), TSPO (gene 706)
# ASSAY TEXT: NVS_MP_hPBR: NovaScreen (NVS) Membrane Protein Assay for human Peripheral-type Benzodiazepine Receptor (PBR) (AID 2283331);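 note: hits reduce radioligand binding relative to DMSO baseline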
Records with an inconclusive call do not appear. The source made the active and inactive calls. Rule for the calls: active = hit-call score of the fitted dose curve at least 0.9, where 1 is the maximum; inconclusive = response in the unintended direction; inactive = score below 0.9.
READOUT KIND: AC50

O=S(=O)(O)c1ccccc1C=Cc1ccc(-c2ccc(C=Cc3ccccc3S(=O)(=O)O)cc2)cc1 = 0.6 µM (active)
CN(C)c1ccc(C(=N)c2ccc(N(C)C)cc2)cc1 = 2.62 µM (active)

Any idea what AC50 came out for `CCCCCCCCCCCCCCCC[N+](C)(C)CC` on human Peripheral-type Benzodiazepine Receptor (PBR), TSPO (gene 706)? 35.8 µM (active)

Please give the result for `CCCCCCCCCCCCCOP(=O)(O)O` too. 18.4 µM (active)

Please give the result for `C/C=C\C/C=C/CCCCCCCCOC(C)=O` too. 16.3 µM (active)

Please give the result for `O=C(Nc1ccccc1SSc1ccccc1NC(=O)c1ccccc1)c1ccccc1` too. 6.22 µM (active)

Please give the result for `Cc1ccc(N/N=c2\c(=O)cc/c(=N/Nc3ccc(S(=O)(=O)O)cc3)c2=O)c(C)c1` too. 7.15 µM (active)

---

# ASSAYED SYSTEM: Estrogen receptor (Homo sapiens) + Estrogen receptor beta (Homo sapiens) (UniProt P03372+Q92731)
# Sequence (P03372 whole entry, looked up, the tested form may be a part): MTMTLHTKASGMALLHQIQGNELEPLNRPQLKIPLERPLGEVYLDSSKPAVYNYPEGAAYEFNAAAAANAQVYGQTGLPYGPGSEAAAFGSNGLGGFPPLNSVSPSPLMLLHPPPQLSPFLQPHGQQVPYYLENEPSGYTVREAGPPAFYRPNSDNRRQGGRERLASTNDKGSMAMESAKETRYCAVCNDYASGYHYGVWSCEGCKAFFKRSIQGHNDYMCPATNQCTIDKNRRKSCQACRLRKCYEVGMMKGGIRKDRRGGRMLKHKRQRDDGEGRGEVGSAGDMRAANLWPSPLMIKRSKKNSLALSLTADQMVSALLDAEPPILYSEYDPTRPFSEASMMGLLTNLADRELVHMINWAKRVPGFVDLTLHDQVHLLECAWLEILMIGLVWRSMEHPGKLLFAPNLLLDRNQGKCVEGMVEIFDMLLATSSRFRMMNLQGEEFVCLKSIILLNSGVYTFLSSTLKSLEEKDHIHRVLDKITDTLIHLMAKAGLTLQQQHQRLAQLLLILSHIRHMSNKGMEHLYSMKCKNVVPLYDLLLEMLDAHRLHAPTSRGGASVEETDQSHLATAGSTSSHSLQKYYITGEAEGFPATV
# Sequence (Q92731 whole entry, looked up, the tested form may be a part): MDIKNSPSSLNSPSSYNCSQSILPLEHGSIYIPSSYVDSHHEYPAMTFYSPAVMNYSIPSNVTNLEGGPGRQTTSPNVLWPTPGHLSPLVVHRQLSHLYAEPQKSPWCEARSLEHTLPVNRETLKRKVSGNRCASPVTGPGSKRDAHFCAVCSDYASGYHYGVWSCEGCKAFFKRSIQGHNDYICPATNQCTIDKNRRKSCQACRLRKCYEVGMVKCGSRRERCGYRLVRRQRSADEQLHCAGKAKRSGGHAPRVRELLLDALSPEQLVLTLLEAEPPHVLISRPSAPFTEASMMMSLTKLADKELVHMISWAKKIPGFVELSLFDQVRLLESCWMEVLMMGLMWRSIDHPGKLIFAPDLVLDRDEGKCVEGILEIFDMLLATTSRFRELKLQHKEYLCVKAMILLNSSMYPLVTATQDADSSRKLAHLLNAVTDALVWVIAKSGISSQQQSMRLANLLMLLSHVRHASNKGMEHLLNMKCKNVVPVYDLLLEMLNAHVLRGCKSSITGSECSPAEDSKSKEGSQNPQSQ
# ASSAY TEXT: OT_ER_ERaERb_1440: Odyssey Thera (OT) 24-hour HEK293T Protein-Complementation Assay for Estrogen Receptor-alpha/-beta Homodimer (AID 2283356);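 note: heteromer of ER alpha and ER beta binding domains; hits raise reporter fluorescence and both agonists and antagonists give an increase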
Records with an inconclusive call do not appear. Active and inactive are the calls of the source. How the source made its calls: active means hit-call score of the fitted dose curve at least 0.9, where 1 is the maximum; inconclusive means response in the unintended direction; inactive means score below 0.9.
Mark one answer only. Choices: True for active, False for inactive

For this molecule, state the assay outcome: `COC(=O)c1c(C)cc(O)c(C)c1O` True

---

# ASSAY TEXT: BSK_CASM3C_SRB: Viability Assessment in the BioMAP Diversity Plus: CASM3C Assay (AID 2283050);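 note: total protein by SRB staining as cytotoxicity measure in parallel cultures; cells exposed to compound for 24 h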
# CONDITION NOTES: primary human coronary artery smooth muscle cells
Activity calls are given as the source filed them. The calls were made as follows: active = hit-call score of the fitted dose curve at least 0.9, where 1 is the maximum; inactive = score below 0.9.
READOUT KIND: AC50

O=C(Nc1ccccc1SSc1ccccc1NC(=O)c1ccccc1)c1ccccc1 = inactive
CCOc1nc(F)cc2nc(S(=O)(=O)Nc3c(Cl)cccc3C(=O)OC)nn12 = inactive
CCCCCCCCc1ccc(Nc2ccc(CCCCCCCC)cc2)cc1 = inactive
C=CCOc1c(Br)cc(Br)cc1Br = 30.4 µM (active)

# get_value(readout='AC50', item= `O=Nc1ccc(O)cc1` ) inactive

Please give the result for `O=c1c2ccccc2oc2ccccc12` too. inactive

Please give the result for `COc1ccc2nc(N)sc2c1` too. inactive

Please give the result for `CC(C)C(=O)C(C)C` too. inactive

Please give the result for `C=C[Si](OC(C)=O)(OC(C)=O)OC(C)=O` too. inactive

---

# ASSAYED SYSTEM: Myc proto-oncogene protein (Homo sapiens)
# ASSAY TEXT: ATG_Myc_CIS: Attagene CIS-FACTORIAL HepG2 Assay for human Myelocytomatosis (Myc) Proto-Oncogene Transcription Factor (AID 2282990)
# CONDITION NOTES: HepG2, Attagene cis-reporter transcription factor activity; actives raise or lower the signal
Active and inactive are the calls of the source. The calls were made as follows: active = hit-call score of the fitted dose curve at least 0.9, where 1 is the maximum; inactive = score below 0.9.
READOUT KIND: AC50

Below: 4 compounds and their reported AC50.
CCCCCCCCCCOC(C)=O = inactive
Oc1ccc(Cl)cc1Cc1cc(Cl)ccc1O = inactive
O=S(=O)(O)c1ccccc1C=Cc1ccc(-c2ccc(C=Cc3ccccc3S(=O)(=O)O)cc2)cc1 = inactive
O=C1CCCCCN1SSN1CCCCCC1=O = inactive

# get_value(readout='AC50', item= `CCCCCCCCCCCCCCCC[n+]1ccccc1` ) 20 µM (active)

Please give the result for CCC(C)OC(=O)c1ccc(O)cc1 (centres undefined) too. inactive

Please give the result for `COc1ccc(-c2coc3cc(O)ccc3c2=O)cc1` too. inactive

Please give the result for OC1OCCOC1O (centres undefined) too. inactive

Please give the result for CC1=NN(c2cc(S(=O)(=O)O)ccc2Cl)C(=O)C1N=Nc1ccccc1 (centres undefined) too. inactive

---

# ASSAYED SYSTEM: Nuclear receptor subfamily 1 group I member 2 (Homo sapiens) (UniProt O75469)
# Sequence (O75469 whole entry, looked up): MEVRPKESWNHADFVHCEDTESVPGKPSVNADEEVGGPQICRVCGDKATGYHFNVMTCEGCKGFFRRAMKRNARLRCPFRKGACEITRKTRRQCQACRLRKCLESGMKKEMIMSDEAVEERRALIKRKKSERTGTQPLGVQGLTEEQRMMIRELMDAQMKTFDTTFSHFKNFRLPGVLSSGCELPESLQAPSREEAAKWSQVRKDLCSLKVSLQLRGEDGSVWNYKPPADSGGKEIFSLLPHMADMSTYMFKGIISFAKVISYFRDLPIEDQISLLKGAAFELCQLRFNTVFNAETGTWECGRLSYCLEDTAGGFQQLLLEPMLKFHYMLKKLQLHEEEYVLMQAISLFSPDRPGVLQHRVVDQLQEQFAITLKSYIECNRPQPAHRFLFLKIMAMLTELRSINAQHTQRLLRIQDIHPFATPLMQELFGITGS
# ASSAY TEXT: ATG_PXR_TRANS: Attagene TRANS-FACTORIAL HepG2 Assay for human Pregnane X Receptor (PXR) (AID 2283008)
Results filed as inconclusive are left out. The source made the active and inactive calls. The calls were made as follows: active = hit-call score of the fitted dose curve at least 0.9, where 1 is the maximum; inconclusive = response in the unintended direction; inactive = score below 0.9.
Mark one answer only. Choices: active, inactive

Worked set:
CCCCCCCCCCCCCCCC[n+]1ccccc1 = inactive
Cc1ccc2c(c1)C(=O)c1ccccc1C2=O = active

For this compound, state the assay outcome: `C[Si](C)(C)O[Si](O)(O)O` inactive

Please give the result for `SCCc1cnccn1` too. inactive

---

# ASSAYED SYSTEM: bovine Estrogen Receptor (ER), ESR1 (gene 407238)
# ASSAY TEXT: NVS_NR_bER: NovaScreen (NVS) Nuclear Receptor Binding Assay for bovine Estrogen Receptor (ER) (AID 2283345);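 note: actives lower the bound radioligand count which means they displace the ER ligand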
Results filed as inconclusive are left out. The source made the active and inactive calls. Rule for the calls: active = hit-call score of the fitted dose curve at least 0.9, where 1 is the maximum; inconclusive = response in the unintended direction; inactive = score below 0.9.
Mark one answer only. Choices: active, inactive

[Cl][Bi]([Cl])([c]1ccccc1)([c]1ccccc1)[c]1ccccc1 = inactive
CC(=O)OC(C)C = inactive
S=C(NC1CCCCC1)NC1CCCCC1 = inactive
Cc1cccc(N(C)C(=S)Oc2ccc3ccccc3c2)c1 = inactive
O=C(OCC1CCC2OC2C1)C1CCC2OC2C1 (stereo not drawn) = inactive
CCCCCCCCCCCCCOP(=O)(O)O = inactive
C#CC1(O)CC[C@H]2[C@@H]3CCC4=CCCC[C@@H]4[C@H]3CC[C@@]21C (stereo partly drawn) = active
O=C1CCCCCN1SSN1CCCCCC1=O = inactive

For this molecule, state the assay outcome: `OC1CCCCCCCCCCC1` inactive

Please give the result for `CCOC(=O)N1CCC(=C2c3ccc(Cl)cc3CCc3cccnc32)CC1` too. inactive

Please give the result for `COc1ccc(C(Cl)=C(c2ccc(OC)cc2)c2ccc(OC)cc2)cc1` too. inactive

Please give the result for `O=S1(=O)OC(c2ccc(O)cc2)(c2ccc(O)cc2)c2ccccc21` too. inactive

Please give the result for `OC1CCCC1` too. inactive

Please give the result for `O=c1cc(-c2ccccc2)oc2ccccc12` too. inactive

Please give the result for `CCCCC/C=C\C/C=C\CCCCCCCC(=O)OC` too. inactive

Please give the result for `O=C(c1ccc(O)cc1)c1ccc(O)cc1O` too. active

Please give the result for `CC1=Nc2ccc3ccccc3c2C1(C)C` too. inactive

Please give the result for `O=C1Nc2ccccc2C1(c1ccc(O)cc1)c1ccc(O)cc1` too. inactive

Please give the result for `Cc1cccc(N)n1` too. inactive

Please give the result for `CCC(=O)Oc1ccc(/C(CC)=C(\CC)c2ccc(OC(=O)CC)cc2)cc1` too. active

Please give the result for `Nc1ccc(Oc2ccc(N)c(N)c2)cc1` too. inactive

Please give the result for `O=S(=O)(O)c1ccccc1C=Cc1ccc(-c2ccc(C=Cc3ccccc3S(=O)(=O)O)cc2)cc1` too. inactive

Please give the result for CCC(C)OC(=O)c1ccc(O)cc1 (stereo not drawn) too. active

---

# Read-out: Collagen I, COL1A1 (gene 1277)
# ASSAY TEXT: BSK_MyoF_CollagenI: BioMAP Diversity Plus: MyoF Assay for Collagen I Biomarker Activity (AID 2284238)
# CONDITION NOTES: primary human lung fibroblasts
The source made the active and inactive calls. The calls were made as follows: active = hit-call score of the fitted dose curve at least 0.9, where 1 is the maximum; inactive = score below 0.9.
READOUT KIND: AC50

Below: 4 molecules and their reported AC50.
C/C=C\C/C=C/CCCCCCCCOC(C)=O = inactive
c1ccc2c(c1)ccc1ncccc12 = inactive
O=c1c2ccccc2oc2ccccc12 = inactive
S=C(NC1CCCCC1)NC1CCCCC1 = inactive

Could you now look at the following molecule, please?
# get_value(readout='AC50', item= `COc1ccc2nc(N)sc2c1` ) inactive

---

# Test system: Thyroperoxidase (TPO), gene 54314
# ASSAY TEXT: CCTE_Simmons_AUR_rTPO: CCTE's Amplex UltraRed Assay for Thyroperoxidase (TPO) Inhibition, Simmons Lab (AID 2283662)
# Method: CCTE_Simmons_AUR_rTPO is a biochemical, single-readout assay that uses microsomes from rat thyroid gland in a tissue-based cell-free assay. Measurements were taken 0.5 hour after chemical dosing in a 384-well plate.CCTE_Simmons_AUR_rTPO is the assay component measured from the CCTE_Simmons_AUR_rTPO assay. […]
Calls of active or inactive are those of the source. How the source made its calls: active means hit-call score of the fitted dose curve at least 0.9, where 1 is the maximum; inconclusive means response in the unintended direction; inactive means score below 0.9.
Mark one answer only. Choices: yes (1) = active, no (0) = inactive

Worked set:
CCN(CCC#N)c1ccc(N=Nc2c(Cl)cc([N+](=O)[O-])cc2Cl)cc1 = yes (1)
CC(C)(C)c1ccc(N)cc1 = yes (1)

For this compound, state the assay outcome: `O=C(c1ccccc1)c1ccc(O)c(O)c1O` yes (1)

Please give the result for `CC/C=C\C/C=C\C/C=C\CCCCCCCC(=O)O` too. yes (1)

Please give the result for `C1=Cc2ccccc2C1` too. yes (1)

Please give the result for `CN(C)c1ccc(C(=N)c2ccc(N(C)C)cc2)cc1` too. yes (1)

Please give the result for `C1CN(SSN2CCOCC2)CCO1` too. yes (1)

Please give the result for `c1ccc2c(c1)ccc1cc3c(ccc4ccccc43)cc12` too. no (0)

Please give the result for `O=S(=O)(O)c1ccccc1C=Cc1ccc(-c2ccc(C=Cc3ccccc3S(=O)(=O)O)cc2)cc1` too. yes (1)
